Test system: NEK10;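 note: KINOMEscan kinase panel screen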
test.parameters: concentration: 1 μM, replicates: in singlicate; n = 1
measurement.type: %Inh (%)

| molecule | observed |
| --- | --- |
| NS(=O)(=O)c1cccc(-c2ccc3nccc(-c4cccc(S(N)(=O)=O)c4)c3c2)c1 [GW867253] | 20 |
| CCc1nc(-c2cccc(C)c2)c(-c2ccnc(NCc3ccccc3)c2)s1 | 0 |
| Cc1nnc(-c2ccc3occ(-c4ccc(C(C)O)cc4)c3c2)o1 (stereo not shown) | 30 |
| O=C(NOCC1CC1)c1ccc(F)c(F)c1Nc1ccc(I)cc1Cl | 0 |
| COc1ccc(Nc2nccc(N3CCC(NC(=O)Nc4cc(C)ccc4C)C3)n2)cc1 (stereo not shown) [GSK1379741] | 1 |
| O=c1cc(N2CCOCC2)nc2n(Cc3cccc4ccccc34)ccn12 [GSK2333389] | 0 |
| NS(=O)(=O)c1cccc(-c2ccc3ncc(N4CCOCC4)nc3c2)c1 [GSK1535721] | 0 |
| CN1c2ccc(CNc3ccc(F)cc3)cc2-c2c(cnn2C)S1(=O)=O | 0 |
| O=c1cc(N2CCOCC2)nc2n(Cc3cccc(C(F)(F)F)c3)ccn12 [GSK2297543] | 0 |
| N#Cc1ccc(-c2cc(-c3c[nH]nc3-c3ccccn3)ccn2)cc1 [GW693028] | 11 |
| Cc1cn2c(=O)cc(N3CCOCC3)nc2n1Cc1cccc(Cl)c1Cl [GSK2334006] | 10 |
| CCn1cnc2c(N)ncnc21 [GW345098] | 39 |
| CCCCCc1nc2c(N)ncnc2n1CCCCC [SKF-97255] | 16 |
| Cc1ccc(NC(=O)c2ccnc(N3CCN(C)CC3)c2)cc1-c1ccc(C(=O)NCC2CC2)cc1 [GW775604] | 0 |
| C[C@@H](Oc1cc(-n2cnc3ccc(NC(=O)NC(C)(C)C)cc32)sc1C(N)=O)c1ccccc1Cl [GSK346294] | 0 |
| O=C(NCCCN1CCOCC1)c1cccc(Nc2nccc(Nc3ccc(Oc4ccccc4)cc3)n2)c1 [GW663929] | 0 |
| CCc1ccnc(/C=C/c2n[nH]c3cc(Sc4ccccc4C(=O)NC)ccc23)c1 | 4 |
| CNc1ncnc2[nH]ncc12 [SKF-18355] | 16 |
| O=C(c1ccc(-c2cc(-c3c[nH]nc3-c3ccccn3)ccn2)cc1)N1CCOCC1 [GW812171] | 18 |
| O=c1cc(N2CCOCC2)nc2n(Cc3cccc(Cl)c3Cl)c(C3CC3)nn12 [GSK2358994] | 20 |
| Cc1cccc(-c2nc(-c3ccc(S(C)(=O)=O)cc3)sc2-c2ccncc2)c1 | 0 |
| CN(C1=C(c2ccccc2)C(=O)NC1=O)c1ccccc1 [SB-334860] | 15 |
| COCCNC(=O)c1ccc(-c2cc(C(=O)NC3CC3)cc(F)c2C)cc1 [GW868318] | 3 |
| O=C(Nc1cccc(-c2nn3ncccc3c2-c2ccnc(Nc3cccc(C(F)(F)F)c3)n2)c1)c1c(F)cccc1F [GSK299495] | 17 |
| COC(=O)Nc1nc2cc(Oc3ccc(NC(=O)Nc4cc(F)ccc4F)cc3)ccc2[nH]1.Cl [GW701424] | 8 |
| Cl.Oc1cccc(Nc2ccnc3cc(-c4ccncc4)ccc23)c1 [GW494601] | 0 |
| CSc1ccc(-c2cc3ncnc(SCC(=O)O)c3s2)cc1 | 26 |
| NS(=O)(=O)CCc1cccc(Nc2nccc(-c3c(-c4cccc(NC(=O)c5c(F)cccc5F)c4)nn4ccccc34)n2)c1 [GSK336735] | 7 |
| Fc1ccc(-c2nn3c(OCC(F)(F)F)cccc3c2-c2ccncc2)cc1 [GW514784] | 11 |
| Cc1cccc(Cn2ccn3c(=O)cc(N4CCOCC4)nc23)c1 [GSK2297542] | 14 |
| COc1ccc(Nc2ncc(C#N)c(Nc3ccccc3C(N)=O)n2)cc1N1CCN(C)CC1.Cl [GSK1558669] | 94.1 |
| Nc1nc(-c2ccc3c(N)n[nH]c3c2)cc(N2CCCC2)n1 [GSK2227430] | 0 |
| COc1ccc(S(=O)(=O)NC2CCN(c3cc(C)nc(Nc4cccc(C#N)c4)n3)CC2)cc1.O=C(O)C(F)(F)F [GSK1653539] | 23 |
| N#Cc1c(N2CCOCC2)sc(-c2ccn[nH]2)c1-c1ccc(Cl)cc1 | 4 |
| O=C1NC(=O)C(N2CCc3ccccc32)=C1c1cccc(Cl)c1 [SB-408010] | 43 |
| c1ccc(-c2n[nH]cc2-c2ccnc3ccccc23)nc1 [GW271431] | 8 |
| COc1cc2ncn(-c3cc(OCc4sccc4Cl)c(C(N)=O)s3)c2cc1OC [GSK448459] | 0 |
